Catalogue of normalized growth readings, one per entry.
# Assay Info: chemical genetic growth profiling, strain panel (AID 1159580);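 note: tested at 20 µM; growth read once vehicle control cultures reached saturation at 30 °C; 1 = growth at the plate median or of vehicle wells; lower values mean less growth of the strain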
# Measurement Conditions: S. cerevisiae deletion strains, growth OD, locus YPR141C, strain kar3, stronger effect = lower value
In all, about 5,500 compounds went through this assay and about 2,000 (36%) were called active. Another 18% or so got no clear call; they are omitted. This is one part of the list.
Give your answer as a number; write no unit.

Examples with their reported normalized growth follow.
>  <Compound>
NC(=O)c1ccc[n+]([C@@H]2O[C@H](COP(=O)([O-])OP(=O)(O)OC[C@H]3O[C@@H](n4cnc5c(N)ncnc54)[C@H](O)[C@@H]3O)[C@@H](O)[C@H]2O)c1

>  <normalized growth>
0.991

$$$$
>  <Compound>
CC(N)CCCC(C)(C)O (configuration not stated)

>  <normalized growth>
1

$$$$
>  <Compound>
CCOC(=O)C1(O)Oc2cc(OC)cc(OC)c2C(=O)C1c1ccccc1 (configuration not stated)

>  <normalized growth>
0.99

$$$$
>  <Compound>
CC1CC2C3CCC4=CC(=O)C=C[C@]4(C)[C@@]3(F)[C@@H](O)C[C@]2(C)[C@@]1(O)C(=O)CO (some centres not stated)

>  <normalized growth>
0.961

$$$$

For the next question, use this compound.
(Q) Given COc1cc2c(cc1OC)[C@@H]1C(=O)c3ccc4c(c3O[C@@H]1CO2)C=CC(C)(C)O4 , state its recorded normalized growth.
(A) 0.95

* * *

# Assay Info: chemical genetic growth profiling, strain panel (AID 1159580)
# Measurement Conditions: S. cerevisiae deletion strains, growth OD, locus YDR388W, stronger effect = lower value
The whole screen tested about 5,500 compounds, of which about 2,000 (36%) were called active. Not shown: some 18% with an inconclusive outcome. The list shows a part of the results.
// NB: equality with 1 counts as false; only normalized growth strictly below is true

>  <Record Smiles>
CCCCCCCCCCCCCCCC[N+](C)(C)C

>  <Group Label>
true

$$$$

Please find the next compound below.
(Q) Criterion: normalized growth strictly below 1. Is it met by c1ccc(N=Nc2ccccc2)cc1 ?
(A) false

* * *

# Assay Info: chemical genetic growth profiling, strain panel (AID 1159580)
# Measurement Conditions: S. cerevisiae deletion strains, growth OD, locus YJL187C, strain SWE1 (second series), stronger effect = lower value
The campaign covered roughly 5,500 compounds. About 2,000 (36%) were called active. About 18% were inconclusive and are not listed. Some of the results follow.
Catalogue of normalized growth readings, one per entry.
Give your answer as a number; write no unit.

Examples with their reported normalized growth follow.
>  <Molecule>
Cc1cc(O)c(C=O)c(O)c1C(=O)O

>  <normalized growth>
1.05

$$$$
>  <Molecule>
COc1cc(NC(C)CCCN)c2ncccc2c1 (configuration not stated)

>  <normalized growth>
1.02

$$$$
>  <Molecule>
COc1cc2c(cc1OC)C(=O)OC2

>  <normalized growth>
1

$$$$
>  <Molecule>
COc1ccc2c(c1OC)C(=O)O[C@H]2[C@H]1c2cc3c(cc2CCN1C)OCO3

>  <normalized growth>
1.01

$$$$
>  <Molecule>
CCS(=O)CCSP(=O)(OC)OC (configuration not stated)

>  <normalized growth>
1.02

$$$$

For the next question, use this molecule.
(Q) Given COc1cc2c(cc1OC)Cc1cc(OC)c(OC)cc1Cc1cc(OC)c(OC)cc1C2 , state its recorded normalized growth.
(A) 1.03

* * *

# Assay Info: chemical genetic growth profiling, strain panel (AID 1159580)
# Measurement Conditions: S. cerevisiae deletion strains, growth OD, locus YPL256C, strain CLN2, stronger effect = lower value
Out of some 5,500 compounds screened, about 2,000 (36%) were called active. Inconclusive results (about 18%) are left out. The list shows a part of the results.
Readout Kind: normalized growth
Give your answer as a number; write no unit.

>  <Compound>
S=C(Nc1ccc(Cl)cc1Cl)N(c1cccc(Cl)c1)c1nc2ccccc2s1

>  <Value>
0.791

$$$$
>  <Compound>
COc1cc2c(cc1OC)[C@@H]1C(=O)c3ccc4c(c3O[C@@H]1CO2)C=CC(C)(C)O4

>  <Value>
0.928

$$$$
>  <Compound>
CCOC(=O)C(Cc1ccc(O)cc1)NC(C)=O (stereo unspecified)

>  <Value>
0.93

$$$$
>  <Compound>
COc1ccc2c(c1)O[C@@H]1COc3cc(OC)c(OC)cc3[C@@H]1C2=O

>  <Value>
1.01

$$$$
>  <Compound>
CCOC(=O)CSC(=S)NCc1ccc(C)cc1

>  <Value>
0.825

$$$$

For the next question, use this compound.
(Q) Given Cc1[nH]c(C)c(Cl)c(=O)c1Cl , state its recorded normalized growth.
(A) 1.02

* * *

# Assay Info: chemical genetic growth profiling, strain panel (AID 1159580)
# Measurement Conditions: S. cerevisiae deletion strains, growth OD, locus YOL147C, strain pex11, stronger effect = lower value
In all, about 5,500 compounds went through this assay and about 2,000 (36%) were called active. Not shown: some 18% with an inconclusive outcome. This is one part of the list.
// NB: equality with 1 counts as No; only normalized growth strictly below is Yes

Consider the worked cases shown below.
>  <Compound>
CCOC(=O)c1c(C)cc(O)c(C)c1O

>  <Group Label>
Yes

$$$$
>  <Compound>
COc1ccc2c(c1)O[C@@H]1COc3cc(OC)c(OC)cc3[C@@H]1C2=O

>  <Group Label>
Yes

$$$$
>  <Compound>
CCOC(=O)c1c(C)cc(O)c(C=O)c1O

>  <Group Label>
Yes

$$$$

(Q) Criterion: normalized growth strictly below 1. Is it met by CCOC(=O)C(=O)C1(C(=O)OCC)Oc2cc(OC)cc(OC)c2C(=O)C1c1ccccc1 (stereo unspecified) ?
(A) Yes

(Q) Criterion: normalized growth strictly below 1. Is it met by COc1cc2c(cc1OC)[C@@H]1C(=O)c3ccc4oc(C(C)C)cc4c3O[C@@H]1CO2 ?
(A) No

* * *

# Assay Info: chemical genetic growth profiling, strain panel (AID 1159580);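 note: tested at 20 µM; growth read once vehicle control cultures reached saturation at 30 °C; 1 = growth at the plate median or of vehicle wells; lower values mean less growth of the strain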
# Measurement Conditions: S. cerevisiae deletion strains, growth OD, locus YNR049C, strain mso1, stronger effect = lower value
Hit rate of the full screen: of about 5,500 compounds, about 2,000 (36%) were called active. Inconclusive results (about 18%) are left out. This is one part of the list.
Readout Kind: normalized growth
Give your answer as a number; write no unit.

Examples with their reported normalized growth follow.
>  <Compound>
CCCCCCCCCCCCCCCC(=O)OC/C=C(C)/C=C/C=C(C)/C=C/C1=C(C)CCCC1(C)C

>  <normalized growth>
1.02

$$$$
>  <Compound>
CCC(=O)O[C@H]1[C@H](O[C@@H]2[C@@H](C)[C@H](O[C@H]3C[C@@](C)(OC)[C@@H](O)[C@H](C)O3)[C@@H](C)C(=O)O[C@H](CC)[C@@](C)(O)[C@H](O)[C@@H](C)C(=O)[C@H](C)C[C@@]2(C)O)O[C@H](C)C[C@@H]1N(C)C

>  <normalized growth>
1.01

$$$$

(Q) Given CN[C@@H](C)[C@@H](O)c1ccccc1 , state its recorded normalized growth.
(A) 0.998

(Q) Given c1ccc(N=Nc2ccccc2)cc1 , state its recorded normalized growth.
(A) 0.994

(Q) Given CC(N)CCCC(C)(C)O (stereo not given) , state its recorded normalized growth.
(A) 0.965

* * *

# Assay Info: chemical genetic growth profiling, strain panel (AID 1159580);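 note: tested at 20 µM; growth read once vehicle control cultures reached saturation at 30 °C; 1 = growth at the plate median or of vehicle wells; lower values mean less growth of the strain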
# Measurement Conditions: S. cerevisiae deletion strains, growth OD, locus YJL157C, strain FAR1
In all, about 5,500 compounds went through this assay and about 2,000 (36%) were called active. About 18% were inconclusive and are not listed. Rule as the data show it: active = normalized growth mostly below about 0.91 (no sharp cut-off); inconclusive = no clear call, values can overlap the other calls; inactive = mostly above about 0.92. The list shows a part of the results.
Can you answer with just one of these options? active, inactive

>  <Molecule>
Cc1nn(Cc2cccc(C(=O)Nc3ccc(Cl)cc3)c2)c(C)c1Br

>  <Group Label>
inactive

$$$$
>  <Molecule>
COc1cc(NC(=S)N(C)C)c(OC)cc1Cl

>  <Group Label>
inactive

$$$$
>  <Molecule>
COc1cc(NC(=S)NNS(=O)(=O)c2ccc(C)cc2)c(OC)cc1Cl

>  <Group Label>
inactive

$$$$
>  <Molecule>
CS(=NC(=O)c1cccc(Cl)c1)c1ccc(OC(=O)c2ccc(Cl)cc2)cc1 (stereo unspecified)

>  <Group Label>
inactive

$$$$
>  <Molecule>
CC(C)(C)CN/C(C#N)=C(/C#N)NCc1cccc(Cl)c1

>  <Group Label>
inactive

$$$$

(Q) For O=S(=O)(Nc1cccc(CCc2ccccn2)c1)c1cc(Cl)c(Cl)cc1Cl , which call appears in the assay record?
(A) inactive

* * *

# Assay Info: chemical genetic growth profiling, strain panel (AID 1159580);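 note: tested at 20 µM; growth read once vehicle control cultures reached saturation at 30 °C; 1 = growth at the plate median or of vehicle wells; lower values mean less growth of the strain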
# Measurement Conditions: S. cerevisiae deletion strains, growth OD, locus YPR141C, strain kar3, stronger effect = lower value
Out of some 5,500 compounds screened, about 2,000 (36%) were called active. Inconclusive results (about 18%) are left out. This is one part of the list.
// NB: equality with 1 counts as False; only normalized growth strictly below is True

Consider the worked cases shown below.
>  <Compound>
COc1ccc2c(c1OC)C(=O)O[C@@H]2[C@H]1c2cc3c(cc2CCN1C)OCO3

>  <Group Label>
False

$$$$
>  <Compound>
CC(=O)OCC(=O)[C@@]1(O)CCC2C3CCC4=CC(=O)CC[C@]4(C)C3C(=O)C[C@@]21C (some centres not stated)

>  <Group Label>
False

$$$$
>  <Compound>
COc1cc(O)c(C(=O)/C=C/c2ccccc2)c(OC)c1

>  <Group Label>
True

$$$$
>  <Compound>
C[C@@H]1[C@H]2[C@H](O[C@@H]3O[C@H](CO)[C@@H](O)[C@H](O)[C@H]3O)OC=C(C(=O)O)[C@H]2C[C@@H]1O

>  <Group Label>
True

$$$$

Please find the next compound below.
(Q) Criterion: normalized growth strictly below 1. Is it met by CC(=O)OCC(=O)[C@H]1CCC2C3CCC4=CC(=O)CC[C@]4(C)C3CC[C@@]21C (some centres not stated) ?
(A) True
